Test: Plate-based fluorescence (RiboGreen) assay: nucleic acid cargo content and encapsulation efficiency of LNPs
Assay type: physicochemical
Conditions: LNP, Formulation F3, N/P 3
Quantity Kind: EE (%) N/P:3
// unit must come after the numeric part

1. CCCCCCCC/C=C\CCCCCCCC(=O)OCC(COC(=O)CCCCCCC/C=C\CCCCCCCC)(COC(=O)CCC(CCCCCC)OC(=O)NCCN1CCCC1)COC(=O)CCC(OCCCCCCCC)OCCCCCCCC (stereo not shown) [Compound 4]: 94%
2. CCCCC/C=C\C/C=C\CCCCCCCC(=O)OCC(COC(=O)CCCCCCC/C=C\C/C=C\CCCCC)(COC(=O)CCC(CCCCCC)OC(=O)NCCN1CCCC1)COC(=O)CCC(OCCCCCCCC)OCCCCCCCC (stereo not shown) [Compound 6]: 95%
3. CCCCCCCC/C=C\CCCCCCCC(=O)OCC(COC(=O)CCCCCCC/C=C\CCCCCCCC)(COC(=O)CCCCCCC/C=C\CCCCCCCC)COC(=O)CCC(CCCCCC)OC(=O)NCCN1CCCC1 (stereo not shown) [Compound 1]: 97%

Proceeding to the next compound to report its EE (%) N/P:3.
Recorded result, CCCCC/C=C\CCOC(=O)CCCCCCC(=O)OCC(COC(=O)CCCCCCC(=O)OCC/C=C\CCCCC)(COC(=O)CCCCCCC(=O)OCC/C=C\CCCCC)COC(=O)CCC(CCCCCC)OC(=O)NCCN1CCCC1 (stereo not shown) [Compound 10] , EE (%) N/P:3: 96%

###

Assay: Dynamic light scattering: LNP particle size and PDI
Type: physicochemical
Conditions: LNP, Formulation F3, N/P 6
Quantity Kind: Size (nm) N/P:6
Answers are plain numbers, in nm.

Examples from the recorded data:
1. CCCCCCC(CCC(=O)OCC(COC(=O)CCCCCCOC(=O)C(CCCC)CCCCCC)(COC(=O)CCCCCCOC(=O)C(CCCC)CCCCCC)COC(=O)CCCCCCOC(=O)C(CCCC)CCCCCC)OC(=O)NCCN1CCCC1 (centres unmarked): 96
2. CCCCC/C=C\CCOC(=O)CCCCCC(=O)OCC(COC(=O)CCCCCC(=O)OCC/C=C\CCCCC)(COC(=O)CCC(CCCCCC)OC(=O)NCCN1CCCC1)COC(=O)CC12CC3CC(CC(C3)C1)C2 (centres unmarked): 100

Could I get Size (nm) N/P:6 for every one of these entries?
1. CCCCC/C=C\CCOC(=O)CCCCCC(=O)OCC(COC(=O)CCCCCC(=O)OCC/C=C\CCCCC)(COC(=O)CCCCCC(=O)OCC/C=C\CCCCC)COC(=O)CCC(CCCCCC)OC(=O)NCCN1CCCC1 (centres unmarked)
2. CCCCC/C=C\CCOC(=O)CCCCCCC(=O)OCC(COC(=O)CCCCCCC(=O)OCC/C=C\CCCCC)(COC(=O)CCC(CCCCCC)OC(=O)NCCN1CCCC1)COC(=O)CC12CC3CC(CC(C3)C1)C2 (centres unmarked)
3. CCCCCCCCOC(CCC(=O)OCC(COC(=O)CCCCCCOC(=O)C(CCCC)CCCCCC)(COC(=O)CCC(CCCCCC)OC(=O)NCCN1CCCC1)COC(=O)CCC(OCCCCCCCC)OCCCCCCCC)OCCCCCCCC (centres unmarked)
4. CCCCC/C=C\CCOC(=O)CCCCCC(=O)OCC(COC(=O)CCCCCC(=O)OCC/C=C\CCCCC)(COC(=O)CCC(CCCCCC)OC(=O)NCCN1CCCC1)COC(=O)CCC(OCCCCCCCC)OCCCCCCCC (centres unmarked)
5. CCCCC/C=C\C/C=C\CCCCCCCC(=O)OCC(COC(=O)CCCCCCC/C=C\C/C=C\CCCCC)(COC(=O)CCC(CCCCCC)OC(=O)NCCN1CCCC1)COC(=O)CCC(OCCCCCCCC)OCCCCCCCC (centres unmarked)
6. CCCCCCCC/C=C\CCCCCCCC(=O)OCC(COC(=O)CCCCCCC/C=C\CCCCCCCC)(COC(=O)CCCCCCC/C=C\CCCCCCCC)COC(=O)CCC(CCCCCC)OC(=O)NCCN1CCCC1 (centres unmarked)

RESULT:
[99, 91, 91, 92, 85, 107]

###

Test: Dynamic light scattering: LNP particle size and PDI
Format: physicochemical
Settings: LNP, Formulation F3, N/P 6
Quantity Kind: PDI N/P:6

Examples from the recorded data:
1. CCCCC/C=C\C/C=C\CCCCCCCC(=O)OCC(COC(=O)CCCCCCC/C=C\C/C=C\CCCCC)(COC(=O)CCC(CCCCCC)OC(=O)NCCN1CCCC1)COC(=O)CCC(OCCCCCCCC)OCCCCCCCC (stereo not drawn) [Compound 6]: 0.078
2. CCCCC/C=C\CCOC(=O)CCCCCC(=O)OCC(COC(=O)CCCCCC(=O)OCC/C=C\CCCCC)(COC(=O)CCC(CCCCCC)OC(=O)NCCN1CCCC1)COC(=O)CCC(OCCCCCCCC)OCCCCCCCC (stereo not drawn) [Compound 9]: 0.03

Recorded result, CCCCC/C=C\CCOC(=O)CCCCC(=O)OCC(COC(=O)CCCCC(=O)OCC/C=C\CCCCC)(COC(=O)CCC(CCCCCC)OC(=O)NCCN1CCCC1)COC(=O)CC12CC3CC(CC(C3)C1)C2 (stereo not drawn) [Compound 14] , PDI N/P:6: 0.14

###

Test: Plate-based fluorescence (RiboGreen) assay: nucleic acid cargo content and encapsulation efficiency of LNPs
Assay type: physicochemical
Conditions: LNP compositions for in vivo mouse study; four formulations (F1-F4) pooled, or pools of four compounds
Give mRNA Content for every item shown.
Give bare numbers, in µg/mL.

Examples from the recorded data:
1. CCCCC/C=C\CCOC(=O)CCCCCCC(=O)OCC(COC(=O)CCCCCCC(=O)OCC/C=C\CCCCC)(COC(=O)CCC(CCCCCC)OC(=O)NCCN1CCCC1)COC(=O)CC12CC3CC(CC(C3)C1)C2 (stereo not drawn): 105
2. CCCCC/C=C\CCOC(=O)CCCCCCC(=O)OCC(COC(=O)CCCCCCC(=O)OCC/C=C\CCCCC)(COC(=O)CCC(CCCCCC)OC(=O)NCCN1CCCC1)COC(=O)CCC(OCCCCCCCC)OCCCCCCCC (stereo not drawn): 91

Proceeding to the next compound to report its mRNA Content.
Recorded result, CCCCC/C=C\CCOC(=O)CCCCCC(=O)OCC(COC(=O)CCCCCCOC(=O)C(CCCC)CCCCCC)(COC(=O)CCCCCC(=O)OCC/C=C\CCCCC)COC(=O)CCC(CCCCCC)OC(=O)NCCN1CCCC1 (stereo not drawn) , mRNA Content: 84

###

Give Organ Mean Total Flux Heart for every item shown.
System: mouse organs
Test: In vivo activity screening in mice: organ mean total flux (p/s) of luciferase activity after injection of F2 LNP pools (Table 6, FIG. 7A-7C)
Conditions: Mouse 13, dose 0.5 mg/kg, luciferase mRNA
Marks after values point to notes of the source that are not given here.

Examples from the recorded data:
1. CCCCCCCCCOC(=O)CCCCC(=O)OCC(COC(=O)CCCCC(=O)OCCCCCCCCC)(COC(=O)CCCCC(=O)OCCCCCCCCC)COC(=O)CCC(CCCCCC)OC(=O)NCCN1CCCC1 (stereo not shown) [Compound 50]: 1.0 p/s (×10^6)
2. CCCCC/C=C\C/C=C\CCCCCCCCC(CCCCCCCC/C=C\C/C=C\CCCCC)OC(=O)CCCN(C)C [MC3, reference compound]: 5.0 p/s (×10^6)
3. CCCCC/C=C\CCOC(=O)CCCC(=O)OCC(COC(=O)CCCC(=O)OCC/C=C\CCCCC)(COC(=O)CCCC(=O)OCC/C=C\CCCCC)COC(=O)CCC(CCCCCC)OC(=O)NCCN1CCCC1 (stereo not shown) [Compound 49]: 0.5 p/s (×10^6)

Could I get Organ Mean Total Flux Heart for every one of these entries?
1. CCCCCCC(CCC(=O)OCC(COC(=O)CCCCOC(=O)C(CCCC)CCCCCC)(COC(=O)CCCCOC(=O)C(CCCC)CCCCCC)COC(=O)CC12CC3CC(CC(C3)C1)C2)OC(=O)NCCN1CCCC1 (stereo not shown) [Compound 59]
2. CCCCC/C=C\CCOC(=O)CCCCC(=O)OCC(COC(=O)CCCCC(=O)OCC/C=C\CCCCC)(COC(=O)CCC(CCCCCC)OC(=O)NCCN1CCCC1)COC(=O)C1CCC2C(C1)C2(F)F (stereo not shown) [Compound 103]
3. CCCCC/C=C\CCOC(=O)CCCCC(=O)OCC(COC(=O)CCCCC(=O)OCC/C=C\CCCCC)(COC(=O)CCC(CCCCCC)OC(=O)NCCN1CCCC1)COC(=O)CC12CC3CC(CC(C3)C1)C2 (stereo not shown) [Compound 14]
4. CCCCC/C=C\CCOC(=O)CCCCC(=O)OCC(COC(=O)CCCCC(=O)OCC/C=C\CCCCC)(COC(=O)CCC(CCCCCC)OC(=O)NCCN1CCCC1)COC(=O)CCC(OCCCCCCCC)OCCCCCCCC (stereo not shown) [Compound 15]

RESULT:
["2.6 p/s (×10^6)", "0.8 p/s (×10^6)", "1.1 p/s (×10^6)", "1.4 p/s (×10^6)"]
